The origin of these recorded values is patent US20200317768A1.

- measured target: T1, Human latent myostatin (human, UniProt O14793 25-266; O14793 267-375)
- T1 construct: also called human myostatin latent form
- T1 sequence 1: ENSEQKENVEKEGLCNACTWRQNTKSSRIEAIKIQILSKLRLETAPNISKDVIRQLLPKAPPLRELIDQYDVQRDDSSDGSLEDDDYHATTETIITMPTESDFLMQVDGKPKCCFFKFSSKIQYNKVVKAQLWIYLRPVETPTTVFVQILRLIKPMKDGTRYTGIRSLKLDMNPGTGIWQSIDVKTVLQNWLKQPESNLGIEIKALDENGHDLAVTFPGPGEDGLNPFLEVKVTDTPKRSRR
- T1 sequence 2: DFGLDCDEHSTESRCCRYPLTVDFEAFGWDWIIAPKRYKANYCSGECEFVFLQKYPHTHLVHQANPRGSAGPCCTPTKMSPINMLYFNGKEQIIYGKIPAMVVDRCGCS
- protocol: SPR (BIACORE T200) 37C, pH 5.8, antibody captured by ProA/G
readout name: pKd
Scale for pKd: -log10 of concentration given in mol/L; no unit attached.

binder	pKd
MS_M103240H1246-SG1/M103202L1045-SK1 (antibody, human IgG1, kappa, V domains shown, also called MS1032LO25-SG1) VH: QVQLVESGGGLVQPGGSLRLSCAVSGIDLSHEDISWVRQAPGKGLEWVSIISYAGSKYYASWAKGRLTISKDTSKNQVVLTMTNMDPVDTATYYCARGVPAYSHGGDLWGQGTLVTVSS VL: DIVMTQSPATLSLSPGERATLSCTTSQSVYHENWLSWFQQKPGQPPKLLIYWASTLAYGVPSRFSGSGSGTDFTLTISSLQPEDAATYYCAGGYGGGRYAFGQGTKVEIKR	7.59
MS_M103205H1046-SG1/M103202L889-SK1 (antibody, human IgG1, kappa, V domains shown, also called MS1032LO10-SG1) VH: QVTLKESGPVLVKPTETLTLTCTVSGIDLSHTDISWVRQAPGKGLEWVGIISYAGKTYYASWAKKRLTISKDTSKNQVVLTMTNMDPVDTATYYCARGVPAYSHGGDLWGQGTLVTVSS VL: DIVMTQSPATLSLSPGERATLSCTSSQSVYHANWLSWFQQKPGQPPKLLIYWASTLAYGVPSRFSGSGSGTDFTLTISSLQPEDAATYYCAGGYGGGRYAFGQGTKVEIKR	7.36

// next item, pKd requested
Dear colleague, please send me the reported pKd for MS_M103205H1795-SG1/M103202L1060-SK1 (antibody, human IgG1, kappa, V domains shown, also called MS1032LO24-SG1) VH: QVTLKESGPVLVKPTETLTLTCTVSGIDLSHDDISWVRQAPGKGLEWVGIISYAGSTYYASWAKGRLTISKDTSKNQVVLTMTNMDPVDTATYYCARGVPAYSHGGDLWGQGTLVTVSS VL: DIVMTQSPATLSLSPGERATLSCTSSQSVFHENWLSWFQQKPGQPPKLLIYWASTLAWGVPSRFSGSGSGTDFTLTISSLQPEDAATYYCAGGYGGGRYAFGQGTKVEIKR when you can.
8.82
